System: Agrostis stolonifera var. palustris
method description: Herbicidal activity against Agrostis stolonifera var. palustris after 9 days by agarose-based test
Type: functional
experimental endpoint: I50 (ppb)
Write down the numeric answer in ppb and omit the unit.

Ask | Quick one: I50 of CN1C(=O)[C@H](Cc2ccccc2)NC(=O)[C@@H]1Cc1c[nH]c2cccc([N+](=O)[O-])c12 [THAXTOMIN C] ?
Reply | 40

Ask | Please report the recorded I50 for CN1C(=O)[C@](O)(Cc2cccc(O)c2)N(C)C(=O)[C@@H]1Cc1c[nH]c2cccc([N+](=O)[O-])c12 [THAXTOMIN A] .
Reply | 25

Ask | Quick one: I50 for CN1C(=O)[C@](O)(Cc2ccc(O)cc2)N(C)C(=O)[C@@H]1Cc1c[nH]c2cccc([N+](=O)[O-])c12 [THAXTOMIN A P-ISOMER] ?
Reply | 100
